- Test system: mKate-E0771 cells
- METHOD SUMMARY: MTT cell viability assay
- Type: cell-based, mouse
- CONDITION DESCRIPTION: H5 25 (head prints mM), 1 h, 37 °C; Data 3
Where no end group is shown, it is not given here.
TEST READOUT: Cell viability (MTT), normalized to untreated cells (%)

SUBSTANCE: IEPDAL [H5, FRET hexapeptide IEPDAL with BODIPY-FL fluorophore at the N-terminal end and Dabcyl quencher]
READOUT NUMBER: 99

----------
- Tested on: mKate-E0771 cells
- METHOD SUMMARY: MTT cell viability assay
- Type: cell-based, mouse
- CONDITION DESCRIPTION: H5 25 (head prints mM), 1 h, 37 °C; Data 2
Where no end group is shown, it is not given here.
TEST READOUT: Cell viability (MTT), normalized to untreated cells (%)

SUBSTANCE: IEPDAL [H5, FRET hexapeptide IEPDAL with BODIPY-FL fluorophore at the N-terminal end and Dabcyl quencher]
MEASUREMENT TARGET: mKate-E0771 cells
DISPLAY UNIT: %
READOUT NUMBER: 102
